- Condition Details: in methanol, 323.15 K
Quantity Kind: solubility (mole fraction)

Mol | Quantity Kind | Numeric Result
CO/N=C1\C[C@]2(C[C@@H]3C[C@@H](C/C=C(\C)C[C@@H](C)/C=C/C=C4\CO[C@@H]5[C@H](O)C(C)=C[C@@H](C(=O)O3)[C@]45O)O2)O[C@H](/C(C)=C/C(C)C)[C@H]1C | solubility (mole fraction) | 0.105

* * *

- Condition Details: in methanol, 278.15 K
Quantity Kind: solubility (mole fraction)

Mol | Numeric Result
CO/N=C1\C[C@]2(C[C@@H]3C[C@@H](C/C=C(\C)C[C@@H](C)/C=C/C=C4\CO[C@@H]5[C@H](O)C(C)=C[C@@H](C(=O)O3)[C@]45O)O2)O[C@H](/C(C)=C/C(C)C)[C@H]1C | 0.0243

* * *

- Condition Details: in water, 293.15 K

Mol | solubility (mole fraction)
CO/N=C1\C[C@]2(C[C@@H]3C[C@@H](C/C=C(\C)C[C@@H](C)/C=C/C=C4\CO[C@@H]5[C@H](O)C(C)=C[C@@H](C(=O)O3)[C@]45O)O2)O[C@H](/C(C)=C/C(C)C)[C@H]1C | 8.61e-06

* * *

- Condition Details: in ethylene glycol, 288.15 K

Mol | solubility (mole fraction)
CO/N=C1\C[C@]2(C[C@@H]3C[C@@H](C/C=C(\C)C[C@@H](C)/C=C/C=C4\CO[C@@H]5[C@H](O)C(C)=C[C@@H](C(=O)O3)[C@]45O)O2)O[C@H](/C(C)=C/C(C)C)[C@H]1C | 0.00631

* * *

- Condition Details: in methanol, 298.15 K

Mol | solubility (mole fraction)
CO/N=C1\C[C@]2(C[C@@H]3C[C@@H](C/C=C(\C)C[C@@H](C)/C=C/C=C4\CO[C@@H]5[C@H](O)C(C)=C[C@@H](C(=O)O3)[C@]45O)O2)O[C@H](/C(C)=C/C(C)C)[C@H]1C | 0.0545

* * *

- Condition Details: in isopropanol, 278.15 K

Mol | solubility (mole fraction)
CO/N=C1\C[C@]2(C[C@@H]3C[C@@H](C/C=C(\C)C[C@@H](C)/C=C/C=C4\CO[C@@H]5[C@H](O)C(C)=C[C@@H](C(=O)O3)[C@]45O)O2)O[C@H](/C(C)=C/C(C)C)[C@H]1C | 0.00799

* * *

- Condition Details: in ethylene glycol, 313.15 K

Mol | solubility (mole fraction)
CO/N=C1\C[C@]2(C[C@@H]3C[C@@H](C/C=C(\C)C[C@@H](C)/C=C/C=C4\CO[C@@H]5[C@H](O)C(C)=C[C@@H](C(=O)O3)[C@]45O)O2)O[C@H](/C(C)=C/C(C)C)[C@H]1C | 0.0157

* * *

- Condition Details: in ethylene glycol, 303.15 K
Quantity Kind: solubility (mole fraction)

Mol | Numeric Result
CO/N=C1\C[C@]2(C[C@@H]3C[C@@H](C/C=C(\C)C[C@@H](C)/C=C/C=C4\CO[C@@H]5[C@H](O)C(C)=C[C@@H](C(=O)O3)[C@]45O)O2)O[C@H](/C(C)=C/C(C)C)[C@H]1C | 0.0117

* * *

- Condition Details: in water, 288.15 K
Quantity Kind: solubility (mole fraction)

Mol | Quantity Kind | Numeric Result
CO/N=C1\C[C@]2(C[C@@H]3C[C@@H](C/C=C(\C)C[C@@H](C)/C=C/C=C4\CO[C@@H]5[C@H](O)C(C)=C[C@@H](C(=O)O3)[C@]45O)O2)O[C@H](/C(C)=C/C(C)C)[C@H]1C | solubility (mole fraction) | 6.71e-06
